Entries and their absolute recovery values follow.
assayNotes: absolute recovery over mixed-bed multilayer solid-phase extraction; higher = better recovery
setupConditions: nanopure water; enrichment method: SPE
Form entry: value (%) — number only.

Consider the worked cases shown below.
[[record]]
compound = "CS(=O)(=O)c1ccc(C(=O)[C-]2C(=O)CCCC2=O)c(Cl)c1COCC(F)(F)F [Tembotrione]"
metricname = "absolute recovery"
testresult = 91.7

[[record]]
compound = "CNC(=O)Oc1cc(C)c(S(C)=O)c(C)c1 (stereo not given) [Methiocarb-sulfoxide]"
metricname = "absolute recovery"
testresult = 75.7

[[record]]
compound = "Nc1cn[nH+]c([O-])c1Cl [Chloridazon-desphenyl]"
metricname = "absolute recovery"
testresult = 58.5

[[record]]
compound = "N#Cc1nn(-c2c(Cl)cc(C(F)(F)F)cc2Cl)c(N)c1SC(F)(F)F [Fipronil-sulfid]"
metricname = "absolute recovery"
testresult = 105


Proceeding to the next compound to report its absolute recovery.
*Q* Report absolute recovery, nothing else, for this compound: COC(=O)C1C(OC(=O)c2ccccc2)CC2CCC1[NH+]2C (stereo not given) [Cocaine]
*A* 97.2
